Just for reference, patent US12077503B2 is where these values come from.

# Test system: ryegrass, Italian (Italian ryegrass, Lolium multiflorum)
# ASSAY METHOD TEXT: Test A postemergence
# Assay type: in vivo
# CONDITIONS: Lolium multiflorum, post-emergence, 240 h, Postemergence, 500 g ai/ha; visual injury, 0 to 100 scale (0 no effect, 100 complete control), approx. 10 d; read-out: Plant response rating, Ryegrass, Italian
# key: entry, value: pest or weed control at 500 g/ha
State just the number; it will be interpreted in %.

Field: example entries. Status: answers known.
CN1C[C@H](c2cccc(C(F)(F)F)c2)[C@@H](C(=O)Nc2ccc(F)c(F)c2F)C1=O = 80
CN1C[C@H](c2ccc3c(c2)CCO3)[C@@H](C(=O)Nc2ccc(F)c(F)c2F)C1=O = 70
Cc1c(F)ccc([C@H]2CNC(=O)[C@@H]2C(=O)Nc2ccc(F)cc2F)c1F = 30

# pest or weed control at 500 g/ha lookup, item CSc1ccccc1NC(=O)[C@H]1C(=O)N(C)C[C@@H]1c1cccc(C(F)(F)F)c1 70

Fill in the blank: the reported pest or weed control at 500 g/ha of Cc1ccc([C@H]2CNC(=O)[C@@H]2C(=O)Nc2c(F)cccc2F)cc1C is ____. 0

----------
# Test system: wheat (Triticum aestivum)
# ASSAY METHOD TEXT: Test A postemergence
# Format: in vivo
# CONDITIONS: 500 g ai/ha, postemergence; 0 to 100 scale, 0 no effect, 100 complete control
OBSERVED PROPERTY: Plant response rating, Wheat

Solved cases (3 shown):
COc1c(F)ccc(NC(=O)C2C(=O)NCC2c2ccc(F)c(F)c2)c1F (stereo not drawn) [Compound 419] = 20
COC(=O)c1ccccc1NC(=O)C1C(=O)NCC1c1ccc(F)c(F)c1 (stereo not drawn) [Compound 417] = 0
Cc1ccc(C2CNC(=O)C2C(=O)Nc2ccccc2F)cc1F (racemic) [Compound 368] = 30

// query Plant response rating, Wheat value for entry COc1c(F)ccc(NC(=O)C2C(=O)N(C)CC2c2cccc(OC(F)(F)C(F)F)c2)c1F (stereo not drawn) [Compound 430] 50

Value lookup for Plant response rating, Wheat; key = O=C1NCC(c2cccc(OCC(F)F)c2)C1C(=O)Nc1ccc(F)cc1F (stereo not drawn) [Compound 388] 0

Which Plant response rating, Wheat is reported for this compound? O=C1NCC(c2cccc(OCC(F)F)c2)C1C(=O)Nc1ccccc1F (racemic) [Compound 387] 0

----------
Recorded measurements of Plant response rating, Barnyardgrass, one per entry
# System: barnyardgrass (Echinochloa crus-galli)
# ASSAY METHOD TEXT: Test A postemergence
# Type: in vivo
# CONDITIONS: 125 g ai/ha, postemergence; visual injury after approximately 10 d; 0 to 100 scale (0 no effect, 100 complete control)
Reply with just the number.

CC(=O)c1ccccc1NC(=O)C1C(=O)NCC1c1cccc(C(F)(F)F)c1 (racemic) = 0
O=C1NCC(c2cccc(OC(F)(F)C(F)F)c2)C1C(=O)Nc1ccccc1Cl (racemic) = 50
O=C1NCC(c2cccc(O)c2)C1C(=O)Nc1cccc(F)c1F (racemic) = 0

For the next question, use this compound.
Which Plant response rating, Barnyardgrass reading was recorded for the compound O=C1NCC(c2cccc(O)c2)C1C(=O)Nc1ccccc1F (racemic) ? 0

----------
Reported Plant response rating, Pigweed values for a set of compounds
# System: pigweed (Amaranthus retroflexus)
# ASSAY METHOD TEXT: Test A preemergence
# Assay type: in vivo
# CONDITIONS: 125 g ai/ha, preemergence; 0 to 100 scale (0 no effect, 100 complete control)
Lab note: write the figure by itself, no unit.

CN1CC(c2cccc(OC(F)(F)C(F)F)c2)C(C(=O)Nc2ccc(F)cc2F)C1=O (stereo not drawn) = 50
CN1CC(c2cccc(C(F)(F)F)c2)C(C)(C(=O)Nc2ccccc2F)C1=O (stereo not drawn) = 0

# input for lookup
What value of measured Plant response rating, Pigweed is listed for Cc1cc(NC(=O)C2C(=O)NCC2c2ccc(F)c(F)c2)ccc1F (stereo not drawn) ? 0
